Would you mind telling me the reported apparent KD of MS2 coat protein of each entry?
test system: MS2 coat protein; experiment: apparent KD of MS2 coat protein; designed switch direction (-1 OFF switch, 1 ON switch): -1; higher = weaker reporter binding; details: Eterna round: R95; input ligand: none

Quick one: give measured apparent KD of MS2 coat protein for GAUUAUGCGAGCUUUAGGGACAUGAGGAUCACCCAUGUUCGUCUUAUUGGUCUAAAUGCACUGACAUACCUAAAUCU [JMF 74] (puzzle: Sensor v3, turn-off variant 1)
16.7 nM

Quick one: give measured apparent KD of MS2 coat protein for AAACCGCAUGUCAGGAUAUCCAGUCCGACUAGCUAGGAGAAGGGACAUGAGGAUCACCCAUGUUUCAUGGCUCG [Anveonat] (puzzle: Brourd's mod of Exclusion 4)
19 nM

Quick one: give measured apparent KD of MS2 coat protein for GGAAAACAUGAGGAUCACCCAUGUGAGGAUAUGCGUACGUUGUCCGUAGGCGACGUGCGCAGAAGGCGCAAGAG [Mat - Mod of JL D89] (puzzle: Exclusion 1)
58.1 nM

Quick one: give measured apparent KD of MS2 coat protein for AGUACUAACACGUUAGUGUUAGUACAAUAAGCUUGUGAAACAUGAGGAUCACCCAUGUCCUCAUAAGCUCGUCUUAU [salish99_TOv2_r3_056] (puzzle: Sensor v3, turn-off variant 2)
16.1 nM
